The entries below come with measured efficacy values attached.
System: HCT116
Assay: efficacy (maximum % inhibition of viability vs DMSO); higher = more cytotoxic
Conditions: 72 h; ICRF193 0 nM
Express the result in % but write the number alone.

Some solved entries appear below for comparison.
compound=O=c1[nH]cc(F)c(=O)[nH]1 test_system=HCT116 unit_tag=% reported=59.5
compound=CCc1c2c(nc3ccc(OC(=O)N4CCC(N5CCCCC5)CC4)cc13)-c1cc3c(c(=O)n1C2)COC(=O)[C@]3(O)CC test_system=HCT116 unit_tag=% reported=79.8
compound="COc1ccc2c(c1)OC(C)(C)C(c1ccccc1)C2c1ccc(OCCN2CCCC2)cc1 (stereo not drawn)" test_system=HCT116 unit_tag=% reported=91
compound="CCOC1O[C@H]([C@@H](COCc2ccccc2)OCc2ccccc2)[C@H](OCc2ccccc2)[C@H]1O (stereo partly drawn) [Tribenoside]" test_system=HCT116 unit_tag=% reported=106
compound=CCCCC[C@H](O)C=C[C@H]1[C@@H](O)CC(=O)[C@@H]1CCCCCCC(=O)O test_system=HCT116 unit_tag=% reported=73.2
compound=O=C1Nc2ccc(Cl)cc2[C@@](C#CC2CC2)(C(F)(F)F)O1 test_system=HCT116 unit_tag=% reported=56.7
compound="CCCCCCCCCCCCCCCC[N+](C)(C)Cc1ccccc1 [Benzylhexadecyldimethylammonium chloride]" test_system=HCT116 unit_tag=% reported=128

Lab note: next compound to report on.
For this compound ( `CC(=O)c1c(C)c2cnc(Nc3ccc(N4CCNCC4)cn3)nc2n(C2CCCC2)c1=O` ), measured efficacy is 98.3

* * *

Test system: HCT116
Details: 72 h; ICRF193 200 nM
Structures can show the parent of a compound that is named as a salt.
Overview of recorded IC50 cell viability for various compounds

// worked examples, IC50 cell viability included
compound="CCCCc1cc2ccccc2c(OCCN(C)C)n1 [Dimethisoquin hydrochloride]" experimental_endpoint="IC50 cell viability" reported="> 45.8 µM"
compound="CN(C)CC/C=C1\\c2ccccc2CSc2ccccc21 [Dosulepin hydrochloride]" experimental_endpoint="IC50 cell viability" reported="29.1 µM"
compound="COc1ccc(C(=O)Nc2ccccc2CCC2CCCCN2C)cc1 (configuration not stated) [Encainide hydrochloride]" experimental_endpoint="IC50 cell viability" reported="> 45.8 µM"
compound="Cc1onc(-c2c(F)cccc2Cl)c1C(=O)N[C@@H]1C(=O)N2[C@@H]1SC(C)(C)[C@@H]2C(=O)O [Flucloxacillin sodium]" experimental_endpoint="IC50 cell viability" reported="> 45.8 µM"
compound="CCCCC1=NC2(CCCC2)C(=O)N1Cc1ccc(-c2ccccc2-c2nnn[nH]2)cc1 [Irbesartan]" experimental_endpoint="IC50 cell viability" reported="> 45.8 µM"
compound="CO[C@H]1/C=C/O[C@@]2(C)Oc3c(C)c(O)c4c(O)c(c(/C=N/N5CCN(C6CCCC6)CC5)c(O)c4c3C2=O)NC(=O)/C(C)=C\\C=C\\[C@H](C)[C@H](O)[C@@H](C)[C@@H](O)[C@@H](C)[C@H](OC(C)=O)[C@@H]1C [Rifapentine]" experimental_endpoint="IC50 cell viability" reported="> 45.8 µM"

Record Cc1cc2nc3c(=O)[nH]c(=O)nc-3n(CC(O)C(O)C(O)COP(=O)(O)O)c2cc1C (configuration not stated) [RIBOFLAVIN 5-PHOSPHATE SODIUM] , field IC50 cell viability: > 45.8 µM
